Target: HPK1 protein (Mus musculus, UniProt P70218)
Construct: the CD3+ T cell population was isolated from spleenocytes of mice; endogenous in cells; host or cells: primary mouse splenic CD3+ (pan) T cells
Sequence (P70218 1-827): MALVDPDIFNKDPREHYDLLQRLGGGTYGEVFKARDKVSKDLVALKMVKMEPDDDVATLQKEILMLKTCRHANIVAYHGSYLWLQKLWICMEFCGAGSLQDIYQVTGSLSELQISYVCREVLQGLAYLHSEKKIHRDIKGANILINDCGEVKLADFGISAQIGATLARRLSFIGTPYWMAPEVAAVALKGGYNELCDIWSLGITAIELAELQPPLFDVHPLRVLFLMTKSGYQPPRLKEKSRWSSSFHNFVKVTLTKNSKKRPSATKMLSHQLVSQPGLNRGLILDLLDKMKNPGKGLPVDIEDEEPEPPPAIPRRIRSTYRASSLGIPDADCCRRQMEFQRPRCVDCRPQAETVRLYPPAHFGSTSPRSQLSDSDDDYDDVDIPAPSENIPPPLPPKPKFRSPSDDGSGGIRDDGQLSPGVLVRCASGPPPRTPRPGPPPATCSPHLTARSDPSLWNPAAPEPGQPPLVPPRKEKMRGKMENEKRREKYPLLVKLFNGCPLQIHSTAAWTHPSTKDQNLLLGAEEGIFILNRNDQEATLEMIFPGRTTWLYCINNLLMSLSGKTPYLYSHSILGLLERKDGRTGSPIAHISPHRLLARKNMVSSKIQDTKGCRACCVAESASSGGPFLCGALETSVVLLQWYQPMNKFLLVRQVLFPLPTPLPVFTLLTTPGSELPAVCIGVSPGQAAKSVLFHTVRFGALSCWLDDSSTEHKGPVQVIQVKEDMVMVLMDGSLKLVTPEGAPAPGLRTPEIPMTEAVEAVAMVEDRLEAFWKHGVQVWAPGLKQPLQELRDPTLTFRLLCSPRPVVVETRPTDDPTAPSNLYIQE
Test: HPK1 protein degradation in mouse pan T cell (western blot)
Type: cell-based
Settings: 18 h incubation
Readout name: Dmax (%)

// known answers, use as guide
- Molecule: "CCc1c[nH]c2ncc(-c3cccc(N4CCN(C(=O)CCOC5CCN(c6ccc7c(c6)C(=O)N(C6CCC(=O)NC6=O)C7=O)CC5)CC4=O)c3)c(Cl)c12 (centres unmarked) [Example 32]"
  Dmax, %: 90
- Molecule: "O=C1CCC(N2C(=O)c3ccc(N4CCC(OCC(=O)N5CCN(c6cccc(-c7cnc8[nH]cc(CC(F)F)c8c7Cl)c6)C(=O)C5)CC4)cc3C2=O)C(=O)N1 (centres unmarked) [Example 36]"
  Dmax, %: 95
- Molecule: "O=C1CCC(N2Cc3cc(N4CCC(OCC(=O)N5CCN(c6cccc(-c7cnc8[nH]cc(C9CC9)c8c7Cl)c6)C(=O)C5)CC4)ccc3C2=O)C(=O)N1 (centres unmarked) [Example 47]"
  Dmax, %: 95

(A) O=C1CCC(N2Cc3cc(N4CCC(OCC(=O)N5CCN(c6cccc(-c7cnc8[nH]cc(C#Cc9ccccn9)c8c7Cl)c6)C(=O)C5)CC4)ccc3C2=O)C(=O)N1 (centres unmarked) [Example 57]
(B) CC(OC1CCN(c2cc3c(cc2F)C(=O)N(C2CCC(=O)NC2=O)C3=O)CC1)C(=O)N1CCN(c2cccc(-c3cnc4[nH]cc(C5CC5)c4c3Cl)c2)C(=O)C1 (centres unmarked) [Example 48]
Compare A and B and name the one whose reported Dmax is smaller. Reply with the label of the item you choose. A

====

Property: IC50; scope: individual compounds
Molecular target: HPK1 protein (Homo sapiens, UniProt Q92918)
Sequence (Q92918 1-346 limits assumed): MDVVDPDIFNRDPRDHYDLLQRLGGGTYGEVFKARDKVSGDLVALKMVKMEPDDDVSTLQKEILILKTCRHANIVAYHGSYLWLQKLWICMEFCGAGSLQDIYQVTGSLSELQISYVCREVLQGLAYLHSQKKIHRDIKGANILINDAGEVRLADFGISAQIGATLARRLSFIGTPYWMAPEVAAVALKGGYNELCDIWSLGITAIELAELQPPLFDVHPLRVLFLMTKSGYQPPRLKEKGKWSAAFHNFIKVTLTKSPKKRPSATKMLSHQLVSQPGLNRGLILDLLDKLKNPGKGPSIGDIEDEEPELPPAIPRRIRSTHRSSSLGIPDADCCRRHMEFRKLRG

// known answers, use as guide
- Compound: "O=C1CCC(N2C(=O)c3ccc(OCCC4CN(C(=O)N5CCN(c6cccc(-c7cnc8[nH]cc(C9CC9)c8c7Cl)c6)C(=O)C5)C4)cc3C2=O)C(=O)N1 (stereo not drawn)"
  Readout name: "IC50"
  Reading: "10 to 100 nM"
- Compound: "O=C1CCC(c2ccc(C3CCN(CCCS(=O)(=O)N4CCN(c5cccc(-c6cnc7[nH]cc(C8CC8)c7c6Cl)c5)C(=O)C4)CC3)cc2)C(=O)N1 (stereo not drawn)"
  Readout name: "IC50"
  Reading: "≤ 10 nM"
- Compound: "CN(CC(=O)N1CCN(c2cccc(-c3cnc4[nH]cc(C5CC5)c4c3Cl)c2)C(=O)C1)C1CCN(c2cc3c(cc2F)C(=O)N(C2CCC(=O)NC2=O)C3=O)CC1 (stereo not drawn)"
  Readout name: "IC50"
  Reading: "10 to 100 nM"
- Compound: "CCc1c[nH]c2ncc(-c3cccc(N4CCN(CCCCNc5ccc6c(c5)C(=O)N(C5CCC(=O)NC5=O)C6=O)CC4=O)c3)c(Cl)c12 (stereo not drawn)"
  Readout name: "IC50"
  Reading: "10 to 100 nM"
- Compound: "CCc1c[nH]c2ncc(-c3cccc(N4CCN(CCCN5CCN(c6cc7c(cc6F)C(=O)N(C6CCC(=O)NC6=O)C7=O)CC5)CC4=O)c3)c(Cl)c12 (stereo not drawn)"
  Readout name: "IC50"
  Reading: "10 to 100 nM"

# return recorded IC50 for entry CCc1c[nH]c2ncc(-c3cccc(N4CCN(C(=O)COC5CCN(c6ccc7c(c6)C(=O)N(C6CCC(=O)NC6=O)C7=O)CC5)CC4=O)c3)c(Cl)c12 (stereo not drawn) ≤ 10 nM

====

molecular target: HPK1 protein (Mus musculus, UniProt P70218); construct: the CD3+ T cell population was isolated from spleenocytes of mice; endogenous in cells; host or cells: primary mouse splenic CD3+ (pan) T cells; test: HPK1 protein degradation in mouse pan T cell (western blot); assay type: cell-based; details: 18 h incubation
Readout name: Dmax (%)

// known answers, use as guide
- Molecule: "O=C1CCC(N2C(=O)c3cc(F)c(N4CCN(CCCN5CCN(c6cccc(-c7cnc8[nH]cc(C9CC9)c8c7Cl)c6)C(=O)C5)CC4)cc3C2=O)C(=O)N1 (centres unmarked) [Example 43]"
  Readout name: "Dmax"
  Unit tag: "%"
  Reading: 95
- Molecule: "CCc1c[nH]c2ncc(-c3cccc(N4CCN(CCCN5CCN(c6ccc7c(c6)C(=O)N(C6CCC(=O)NC6=O)C7=O)CC5)CC4=O)c3)c(Cl)c12 (centres unmarked) [Example 27]"
  Readout name: "Dmax"
  Unit tag: "%"
  Reading: 95
- Molecule: "Cn1nc(N2CCC(=O)NC2=O)c2ccc(C3CCN(CCCN4CCN(c5cccc(-c6cnc7[nH]cc(C8CC8)c7c6Cl)c5)C(=O)C4)CC3)cc21 [Example 77]"
  Readout name: "Dmax"
  Unit tag: "%"
  Reading: 95

(I) CCc1c[nH]c2ncc(-c3cccc(N4CCN(CCC(=O)N5CCN(c6ccc7c(c6)C(=O)N(C6CCC(=O)NC6=O)C7=O)CC5)CC4=O)c3)c(Cl)c12 (centres unmarked) [Example 24]
(II) CCc1c[nH]c2ncc(-c3cc(N4CCN(C(=O)CN(C)C5CCN(c6cc7c(cc6F)C(=O)N(C6CCC(=O)NC6=O)C7=O)CC5)CC4=O)ccc3F)c(Cl)c12 (centres unmarked) [Example 44]
Compare I and II and name the one whose reported Dmax is smaller. Reply with the label of the item you choose. II
(II: 50%, I: 91%)

====

target: HPK1 protein (Homo sapiens); construct: purchased Signal Chem M23-11G-10; assay: HPK1 enzyme inhibition assay (ADP-Glo); format: biochemical; details: MBP substrate, ATP, ADP-Glo readout
Readout name: IC50

// known answers, use as guide
- Compound: "CCc1c[nH]c2ncc(-c3cccc(N4CCN(C(=O)CCCCCCCOc5cccc6c5CN(C5CCC(=O)NC5=O)C6=O)CC4=O)c3)c(Cl)c12 (stereo not drawn)"
  IC50: "0.01 to 0.1 µM"
- Compound: "O=C1CCN(c2cccc3cc(N4CCC(OCCN5CCN(c6cccc(-c7cnc8[nH]cc(C9CC9)c8c7Cl)n6)C(=O)C5)CC4)ccc23)C(=O)N1"
  IC50: "0.01 to 0.1 µM"
- Compound: "CCc1c[nH]c2ncc(-c3cccc(N4CCN(C(=O)CCOCCOCc5cn(-c6cccc7c6CN(C6CCC(=O)NC6=O)C7=O)nn5)CC4=O)c3)c(Cl)c12 (stereo not drawn)"
  IC50: "0.01 to 0.1 µM"
- Compound: "CCc1c[nH]c2ncc(-c3cccc(N4CCN(CCOCCN5CCN(c6cc7c(cc6F)C(=O)N(C6CCC(=O)NC6=O)C7=O)CC5)CC4=O)c3)c(Cl)c12 (stereo not drawn)"
  IC50: "0.01 to 0.1 µM"
- Compound: "CCc1c[nH]c2ncc(-c3cccc(N4CCN(CCCN5CC=C(c6ccc7c(N8CCC(=O)NC8=O)nn(C)c7c6)CC5)CC4=O)c3)c(Cl)c12"
  IC50: "≤ 0.01 µM"

Consider now this further compound.
# return recorded IC50 for entry Cn1nc(N2CCC(=O)NC2=O)c2ccc(C3CCN(CCCN4CCN(c5cccc(-c6cnc7[nH]cc(C8CC8)c7c6Cl)c5)C(=O)C4)CC3)cc21 ≤ 0.01 µM

Source of measurements: patent US20240368159A1
